Source: patent US9718835B2

# Tested on: SKOV3 (Ovary cancer)
# assay-notes: cells
# Assay type: cell-based, human
# particulars: Table 6; read-out: In vitro cytotoxicity SKOV3 (Ovary cancer)
pIC50: −log10 of the molar value.
The entries below are paired with their reported pIC50.
measurement-label: pIC50

compound | observed-result
CC[C@@]1(OC(=O)CNC(Cc2ccc(OC)cc2)=NS(=O)(=O)c2ccc(C)cc2)C(=O)OCc2c1cc1n(c2=O)Cc2cc3ccccc3nc2-1 [Compound 9a] | 7.77
CCc1c2c(nc3ccccc13)-c1cc3c(c(=O)n1C2)COC(=O)[C@@]3(CC)OC(=O)CNC(Cc1ccc(OC)cc1)=NS(=O)(=O)c1ccc(C)cc1 [Wcpt-03] | 8.09
